Value source: patent US10829473B2

subject of test: F508delCFTR (Homo sapiens, UniProt P13569, DEL508-508)
Construct: expressed in transfected cells; host or cells: CFBE41o- human lung derived epithelial cells (CFBE41o-F508delCFTR-HRP), doxycycline-inducible
Sequence (P13569 with tags, fused parts or gaps DEL508-508): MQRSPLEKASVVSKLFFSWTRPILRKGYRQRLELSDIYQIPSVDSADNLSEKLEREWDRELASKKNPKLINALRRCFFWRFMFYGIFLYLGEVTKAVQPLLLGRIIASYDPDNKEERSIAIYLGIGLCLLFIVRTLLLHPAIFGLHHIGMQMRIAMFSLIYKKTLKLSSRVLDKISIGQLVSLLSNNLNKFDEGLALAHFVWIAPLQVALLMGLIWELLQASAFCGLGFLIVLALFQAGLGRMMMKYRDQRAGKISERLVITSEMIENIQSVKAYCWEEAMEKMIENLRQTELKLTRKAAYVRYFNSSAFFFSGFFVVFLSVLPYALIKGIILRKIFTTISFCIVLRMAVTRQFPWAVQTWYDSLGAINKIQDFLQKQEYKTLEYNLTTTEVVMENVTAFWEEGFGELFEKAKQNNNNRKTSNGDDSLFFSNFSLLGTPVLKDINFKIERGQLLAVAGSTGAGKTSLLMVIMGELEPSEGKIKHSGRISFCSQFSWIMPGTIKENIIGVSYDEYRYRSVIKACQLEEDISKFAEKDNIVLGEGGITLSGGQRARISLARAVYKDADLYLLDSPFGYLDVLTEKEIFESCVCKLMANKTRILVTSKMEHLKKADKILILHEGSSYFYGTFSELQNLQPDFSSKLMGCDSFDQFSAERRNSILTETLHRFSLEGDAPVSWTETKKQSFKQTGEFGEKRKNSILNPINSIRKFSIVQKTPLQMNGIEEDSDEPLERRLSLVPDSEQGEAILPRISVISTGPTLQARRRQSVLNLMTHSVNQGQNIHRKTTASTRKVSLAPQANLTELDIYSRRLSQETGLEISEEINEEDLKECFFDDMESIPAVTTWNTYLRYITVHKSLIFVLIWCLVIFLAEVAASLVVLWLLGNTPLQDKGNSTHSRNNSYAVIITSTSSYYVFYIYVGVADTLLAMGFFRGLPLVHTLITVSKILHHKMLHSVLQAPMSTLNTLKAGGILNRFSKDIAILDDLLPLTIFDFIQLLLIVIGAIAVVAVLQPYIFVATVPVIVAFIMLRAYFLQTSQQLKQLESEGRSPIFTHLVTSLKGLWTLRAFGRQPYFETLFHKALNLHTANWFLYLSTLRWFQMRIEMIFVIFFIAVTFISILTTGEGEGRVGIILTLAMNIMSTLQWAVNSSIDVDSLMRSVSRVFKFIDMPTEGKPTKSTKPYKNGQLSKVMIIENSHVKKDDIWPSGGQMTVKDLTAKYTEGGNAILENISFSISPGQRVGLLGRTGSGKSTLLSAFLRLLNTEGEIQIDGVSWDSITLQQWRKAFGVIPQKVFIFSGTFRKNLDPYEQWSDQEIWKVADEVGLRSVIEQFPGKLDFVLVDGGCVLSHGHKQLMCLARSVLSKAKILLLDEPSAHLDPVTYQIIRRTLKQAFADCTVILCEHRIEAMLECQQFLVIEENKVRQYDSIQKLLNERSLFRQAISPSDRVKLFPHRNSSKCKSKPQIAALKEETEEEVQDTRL
test method notes: Cell Surface Expression-Horse Radish Peroxidase (CSE-HRP) Assay;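 note: % of on-plate positive control chromenyl benzoic acid corrector at 2 or 3 µM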
Type: cell-based
test parameters: test compound without co-corrector; maximum at any tested concentration; read-out: Maximum % activity (without co-corrector)
Protocol: A cellular assay for measuring the F508delCFTR cell surface expression after correction with test compounds either without or with a co-corrector (2 μM of 3-[(2R,4R)-4-({[1-(2,2-difluoro-1,3-benzodioxol-5-yl)cyclopropyl]carbonyl}amino)-7-methoxy-3,4-dihydro-2H-chromen-2-yl]benzoic acid), was developed in human lung derived epithelial cell line (CFBE4lo−) (Veit G et al, (2012) Mol Biol Cell. 23(21): 4188-4202). […] The raw counts from the experiment were analyzed using Accelrys® Assay Explorer v3.3. […]

{"compound": "CC(C)Oc1ccc(C2CCC2)nc1C1(C(=O)NS(=O)(=O)c2cccc3[nH]ccc23)CC1 [Example GI-38]", "Emax": "> 150%"}
{"compound": "CCc1cnc(N2CCOCC2)c(C2(C(=O)NS(=O)(=O)c3cccc4nc(C)ccc34)CC2)c1 [GII-32]", "Emax": "50 to 150%"}
{"compound": "COc1cc(C2(C(=O)NS(=O)(=O)c3cccc4ncccc34)CC2)c(C)cn1 [GII-13]", "Emax": "50 to 150%"}
{"compound": "CC(C)COc1cnc(Cl)c(C2(C(=O)NS(=O)(=O)c3cccc4ncccc34)CC2)c1 [GIII-5]", "Emax": "< 50%"}
{"compound": "Cc1ccc2c(S(=O)(=O)NC(=O)C3(c4cc(C5CCC5)cnc4N4CCC(OC(C)C)CC4)CC3)cccc2n1 [Example GI-113]", "Emax": "> 150%"}
{"compound": "Cc1ccc(C2(C(=O)NS(=O)(=O)c3cccc4[nH]ccc34)CC2)c(OC(C)C)n1 [Example GI-82]", "Emax": "> 150%"}
{"compound": "O=C(NS(=O)(=O)c1cccc2c1CCCN2)C1(c2cc(C3CC3)cnc2N2CCCC2)CC1 [GII-29]", "Emax": "> 150%"}
{"compound": "CC(C)Oc1ncc(N2CCCC2)cc1C1(C(=O)NS(=O)(=O)c2cccc3[nH]ccc23)CC1 [Example GI-64]", "Emax": "> 150%"}
